# Tested on: Clostridium difficile (Isolate ID ATCC 9689)
# test-details: Bacterial Assay: Determination of Antibacterial Activity (MIC, broth microdilution or agar dilution)
# Format: cell-based
# condition-parameters: Clostridioides difficile, ATCC9689, 48 h, read-out: C. difficile MIC Activity Range
Could you please report measured MIC for the items listed next?

Enquiry: Return reported MIC; argument: NC(=O)c1c(F)ccc(OCc2nc(C#Cc3cccc(Cl)c3)cs2)c1F [Compound 198]
Return: < 1.01 µg/mL

Enquiry: Record request: MIC value, item NC(=O)c1c(F)ccc(OCc2nc(-c3ccc(F)cc3)cs2)c1F [Compound 15]
Return: 1 to 4 µg/mL

Enquiry: Data request, read-out MIC, for NC(=O)c1c(F)ccc(O[C@H](CO)c2nc(-c3ccc(C(F)(F)F)cc3)c(Br)o2)c1F (single isomer, unassigned) [Compound 47]
Return: < 1.01 µg/mL

Enquiry: Any idea what MIC was measured for NC(=O)c1c(F)ccc(OC(COC(=O)CCCN2C(=O)c3ccccc3C2=O)c2nc(-c3ccc(C(F)(F)F)cc3)c(Br)o2)c1F (stereo not shown) [Compound 42] ?
Return: < 1.01 µg/mL

Enquiry: Which MIC reading was recorded for the molecule NC(=O)c1c(F)ccc(OC(CNC(=O)c2ccccc2)c2nc(-c3ccc(C(F)(F)F)cc3)c(Br)o2)c1F (racemic) [Compound 96] ?
Return: < 1.01 µg/mL

Enquiry: Looking for the measured MIC of Cc1cc(CNC(=O)OCC(Oc2ccc(F)c(C(N)=O)c2F)c2nc(-c3ccc(C(F)(F)F)cc3)c(Br)o2)n(C)n1 (stereo not shown) [Compound 87] , can you help?
Return: 1 to 4 µg/mL

Enquiry: // MIC lookup, key: NC(=O)c1c(F)ccc(OC(CCC(O)CO)c2nc(-c3ccc(C(F)(F)F)cc3)c(Br)o2)c1F (stereo not shown) [Compound 53]
Return: 1 to 4 µg/mL

Enquiry: So what does the record say about MIC for NC(=O)c1c(F)ccc(OCc2nc(-c3ccc(OC(F)(F)F)cc3)c(C(F)(F)F)o2)c1F [Compound 213] ?
Return: < 1.01 µg/mL

Enquiry: // lookup MIC for NC(=O)c1c(F)ccc(OC(CO)c2nc(-c3ccc(Cl)cc3)cs2)c1F (stereo not shown) [Compound 25]
Return: 4 to 16 µg/mL

Enquiry: Name the recorded MIC for NC(=O)c1c(F)ccc(OC(COP(=O)(O)O)c2nc(-c3ccc(C(F)(F)F)cc3)c(Br)o2)c1F (stereo not shown) [Compound 43] .
Return: 1 to 4 µg/mL

Enquiry: Quick one: MIC for NC(=O)c1c(F)ccc(OCCCCCCOc2ccc(C(F)(F)F)cc2)c1F [Compound 135] ?
Return: < 1.01 µg/mL

Enquiry: Looking for the measured MIC of C#CCCCCCCCCCOc1ccc(F)c(C(N)=O)c1F [Compound 7] , can you help?
Return: < 1.01 µg/mL

Enquiry: Endpoint output: MIC of NC(=O)c1c(F)ccc(OCCCCOc2ccc(Br)cc2)c1F [Compound 176] . Value?
Return: < 1.01 µg/mL

Enquiry: Any idea what its MIC is? The molecule is COc1ccc(-c2nc(COc3ccc(F)c(C(N)=O)c3F)oc2-c2cccc(Cl)c2O)cc1 [Compound 204]
Return: 4 to 16 µg/mL

Enquiry: Which measured MIC value corresponds to CCCCCCCCCOc1ccc(F)c(C(=N)N)c1F [Compound 107] ?
Return: 4 to 16 µg/mL

Enquiry: Consider the molecule CN(C)CC(=O)OCC(Oc1ccc(F)c(C(N)=O)c1F)c1nc(-c2ccc(C(F)(F)F)cc2)c(Br)o1 (stereo not shown) [Compound 36] and give its measured MIC.
Return: < 1.01 µg/mL

Enquiry: For CN(Cc1ccncc1)C(=O)OCC(Oc1ccc(F)c(C(N)=O)c1F)c1nc(-c2ccc(C(F)(F)F)cc2)c(Br)o1 (stereo not shown) [Compound 71] , what is its reported MIC?
Return: 4 to 16 µg/mL

Enquiry: State the recorded MIC for this entry: NC(=O)c1c(F)ccc(OCCCCOc2ccc(C(F)(F)F)nn2)c1F [Compound 158]
Return: 4 to 16 µg/mL

Enquiry: Requested field: MIC. Item: NC(=O)c1c(F)ccc(OC(COC(=O)Nc2cccnc2)c2nc(-c3ccc(C(F)(F)F)cc3)c(Br)o2)c1F (racemic) [Compound 64]
Return: < 1.01 µg/mL

Enquiry: Reported MIC, molecule NC(=O)c1c(F)ccc(N(CCCCOc2ccc(OC(F)(F)F)cc2)CC(=O)O)c1F [Compound 187] : ____
Return: 4 to 16 µg/mL

Enquiry: Item NC(=O)c1c(F)ccc(OCc2nc(-c3ccc(C(F)(F)F)cc3)c(Br)o2)c1F [Compound 208] has what recorded MIC?
Return: < 1.01 µg/mL

Enquiry: What value of MIC has been recorded for this entry: NC(=O)c1c(F)ccc(OCc2nc(-c3ccc(Cl)c(O)c3)cs2)c1F [Compound 196]
Return: 1 to 4 µg/mL

Enquiry: Quick one: MIC of NC(=O)c1c(F)ccc(OCC#CCOc2ccc(OC(F)(F)F)cc2)c1F [Compound 160] ?
Return: < 1.01 µg/mL

Enquiry: // MIC lookup, key: NC(=O)c1c(F)ccc(OC(COC(=O)Cn2cccc2)c2nc(-c3ccc(C(F)(F)F)cc3)c(Br)o2)c1F (stereo not shown) [Compound 40]
Return: < 1.01 µg/mL

Enquiry: Consider the molecule NC(=O)c1c(F)ccc(OC(CNC(=O)c2ccccn2)c2nc(-c3ccc(C(F)(F)F)cc3)c(Br)o2)c1F (racemic) [Compound 98] and give its measured MIC.
Return: 1 to 4 µg/mL

Enquiry: For the molecule NC(=O)c1c(F)ccc(OCCOCCOc2ccc(C(F)(F)F)cn2)c1F [Compound 156] , what MIC is on record?
Return: 1 to 4 µg/mL

Enquiry: // lookup MIC for COc1ncccc1CNC(=O)OCC(Oc1ccc(F)c(C(N)=O)c1F)c1nc(-c2ccc(C(F)(F)F)cc2)c(Br)o1 (stereo not shown) [Compound 74]
Return: < 1.01 µg/mL

Enquiry: // query MIC value for entry CC(=O)OCCCC(Oc1ccc(F)c(C(N)=O)c1F)c1nc(-c2ccc(C(F)(F)F)cc2)c(Br)o1 (stereo not shown) [Compound 45]
Return: 1 to 4 µg/mL

Enquiry: // query MIC value for entry NC(=O)c1c(F)ccc(OCc2nc(-c3ccc(S(F)(F)(F)(F)F)cc3)co2)c1F [Compound 121]
Return: 1 to 4 µg/mL

Enquiry: I'd like to know its MIC. The molecule in question is NC(=O)c1c(F)ccc(OCc2nc(-c3ccc(OC(F)(F)F)cc3)ns2)c1F [Compound 20]
Return: < 1.01 µg/mL

Enquiry: Report MIC for NC(=O)c1c(F)ccc(OC(CCCO)c2nc(-c3ccc(C(F)(F)F)cc3)c(Br)o2)c1F (stereo not shown) [Compound 46] please.
Return: 1 to 4 µg/mL
